The entries below come with measured Size of Zone of Inhibition (mm) Staphylococcus aureus ATCC 6738P values attached.
Test system: Staphylococcus aureus ATCC 6738P
Assay: agar-plate disc-diffusion test
Assay type: cell-based
Settings: suspended in water at 1 mg/ml; 7 mm disc; 24-48 hours at 25-37° C.
Write it as a number; the unit mm goes unstated.

Known Size of Zone of Inhibition (mm) Staphylococcus aureus ATCC 6738P results, listed for orientation:
Short answer for CCCCCCC(=O)N[C@@H](Cc1c[nH]c2ccccc12)C(=O)N[C@@H](CC(N)=O)C(=O)N[C@@H](CC(=O)O)C(=O)N[C@@H]1C(=O)NCC(=O)N[C@@H](CCCN)C(=O)N[C@@H](CC(=O)O)C(=O)N[C@H](C)C(=O)N[C@@H](CC(=O)O)C(=O)NCC(=O)N[C@H](CO)C(=O)N[C@@H]([C@H](C)CC(=O)O)C(=O)N[C@@H](CC(=O)c2ccccc2N)C(=O)O[C@@H]1C : Size of Zone of Inhibition (mm) Staphylococcus aureus ATCC 6738P was 17

Note to self: Size of Zone of Inhibition (mm) Staphylococcus aureus ATCC 6738P recorded for CCC(C)CCCCCCC(=O)N[C@@H](Cc1c[nH]c2ccccc12)C(=O)N[C@@H](CC(N)=O)C(=O)N[C@@H](CC(=O)O)C(=O)N[C@@H]1C(=O)NCC(=O)N[C@@H](CCCNC(=O)CCC(=O)O)C(=O)N[C@@H](CC(=O)O)C(=O)N[C@H](C)C(=O)N[C@@H](CC(=O)O)C(=O)NCC(=O)N[C@H](CO)C(=O)N[C@@H]([C@H](C)CC(=O)O)C(=O)N[C@@H](CC(=O)c2ccccc2N)C(=O)O[C@@H]1C (stereo partly shown) was 21

For CCCCCCCCCCCCCC(=O)N[C@@H](Cc1c[nH]c2ccccc12)C(=O)N[C@@H](CC(N)=O)C(=O)N[C@@H](CC(=O)O)C(=O)N[C@@H]1C(=O)NCC(=O)N[C@@H](CCCN)C(=O)N[C@@H](CC(=O)O)C(=O)N[C@H](C)C(=O)N[C@@H](CC(=O)O)C(=O)NCC(=O)N[C@H](CO)C(=O)N[C@@H]([C@H](C)CC(=O)O)C(=O)N[C@@H](CC(=O)c2ccccc2N)C(=O)O[C@@H]1C the molecule record lists Size of Zone of Inhibition (mm) Staphylococcus aureus ATCC 6738P as 22

More entries:
Consider CCCCCCCC(=O)NCCC[C@@H]1NC(=O)CNC(=O)[C@@H](NC(=O)[C@H](CC(=O)O)NC(=O)[C@H](CC(N)=O)NC(=O)[C@H](Cc2c[nH]c3ccccc23)NC(=O)CCCCCCC)[C@@H](C)OC(=O)[C@H](CC(=O)c2ccccc2N)NC(=O)[C@H]([C@H](C)CC(=O)O)NC(=O)[C@@H](CO)NC(=O)CNC(=O)[C@H](CC(=O)O)NC(=O)[C@@H](C)NC(=O)[C@H](CC(=O)O)NC1=O . Its measured Size of Zone of Inhibition (mm) Staphylococcus aureus ATCC 6738P is 11

====

Tested on: Streptococcus Group 9960
Format: cell-based, Streptococcus pneumoniae
Details: agar dilution; 2, 5, 17, 22 median of three tests; paired values two experiments
The label Met is reserved for MIC Streptococcus pneumoniae Group 9960 strictly under 1 µg/mL; Not met covers values equal to or above it.

Just wondering, is MIC Streptococcus pneumoniae Group 9960 of CCCCCCCCCCC(=O)NCCC[C@@H]1NC(=O)CNC(=O)[C@@H](NC(=O)[C@H](CC(=O)O)NC(=O)[C@H](CC(N)=O)NC(=O)[C@H](Cc2c[nH]c3ccccc23)NC(=O)CCCCCCCCCC)[C@@H](C)OC(=O)[C@H](CC(=O)c2ccccc2N)NC(=O)[C@H]([C@H](C)CC(=O)O)NC(=O)[C@@H](CO)NC(=O)CNC(=O)[C@H](CC(=O)O)NC(=O)[C@@H](C)NC(=O)[C@H](CC(=O)O)NC1=O [Compound 17] below 1 µg/mL?
Not met

***
Given CCCCCCCCCCCCCCCC(=O)N[C@@H](Cc1c[nH]c2ccccc12)C(=O)N[C@@H](CC(N)=O)C(=O)N[C@@H](CC(=O)O)C(=O)N[C@@H]1C(=O)NCC(=O)N[C@@H](CCCN)C(=O)N[C@@H](CC(=O)O)C(=O)N[C@H](C)C(=O)N[C@@H](CC(=O)O)C(=O)NCC(=O)N[C@H](CO)C(=O)N[C@@H]([C@H](C)CC(=O)O)C(=O)N[C@@H](CC(=O)c2ccccc2N)C(=O)O[C@@H]1C [Compound 10] , is recorded MIC Streptococcus pneumoniae Group 9960 strictly lower than 1 µg/mL?
Met

Quick check: does CCCCCCCC(=O)N[C@@H](Cc1c[nH]c2ccccc12)C(=O)N[C@@H](CC(N)=O)C(=O)N[C@@H](CC(=O)O)C(=O)N[C@@H]1C(=O)NCC(=O)N[C@@H](CCCN)C(=O)N[C@@H](CC(=O)O)C(=O)N[C@H](C)C(=O)N[C@@H](CC(=O)O)C(=O)NCC(=O)N[C@H](CO)C(=O)N[C@@H]([C@H](C)CC(=O)O)C(=O)N[C@@H](CC(=O)c2ccccc2N)C(=O)O[C@@H]1C [Compound 2] have MIC Streptococcus pneumoniae Group 9960 under 1 µg/mL?
Not met

Confirm or reject: MIC Streptococcus pneumoniae Group 9960 of CCCCCCCCCCCCC(=O)N[C@@H](Cc1c[nH]c2ccccc12)C(=O)N[C@@H](CC(N)=O)C(=O)N[C@@H](CC(=O)O)C(=O)N[C@@H]1C(=O)NCC(=O)N[C@@H](CCCN)C(=O)N[C@@H](CC(=O)O)C(=O)N[C@H](C)C(=O)N[C@@H](CC(=O)O)C(=O)NCC(=O)N[C@H](CO)C(=O)N[C@@H]([C@H](C)CC(=O)O)C(=O)N[C@@H](CC(=O)c2ccccc2N)C(=O)O[C@@H]1C [Compound 7] lies strictly below 1 µg/mL
Not met

Check if MIC Streptococcus pneumoniae Group 9960 falls below 1 µg/mL for CCCCCCCC(=O)NCCC[C@@H]1NC(=O)CNC(=O)[C@@H](NC(=O)[C@H](CC(=O)O)NC(=O)[C@H](CC(N)=O)NC(=O)[C@H](Cc2c[nH]c3ccccc23)NC(=O)CCCCCCC)[C@@H](C)OC(=O)[C@H](CC(=O)c2ccccc2N)NC(=O)[C@H]([C@H](C)CC(=O)O)NC(=O)[C@@H](CO)NC(=O)CNC(=O)[C@H](CC(=O)O)NC(=O)[C@@H](C)NC(=O)[C@H](CC(=O)O)NC1=O [Compound 16] .
Not met

# strict comparison: is reported MIC Streptococcus pneumoniae Group 9960 < 1 µg/mL? input = CCCCCCC(=O)N[C@@H](Cc1c[nH]c2ccccc12)C(=O)N[C@@H](CC(N)=O)C(=O)N[C@@H](CC(=O)O)C(=O)N[C@@H]1C(=O)NCC(=O)N[C@@H](CCCN)C(=O)N[C@@H](CC(=O)O)C(=O)N[C@H](C)C(=O)N[C@@H](CC(=O)O)C(=O)NCC(=O)N[C@H](CO)C(=O)N[C@@H]([C@H](C)CC(=O)O)C(=O)N[C@@H](CC(=O)c2ccccc2N)C(=O)O[C@@H]1C [Compound 1]
Not met

Here's an entry: CCCCCCCCCCCCCCC(=O)N[C@@H](Cc1c[nH]c2ccccc12)C(=O)N[C@@H](CC(N)=O)C(=O)N[C@@H](CC(=O)O)C(=O)N[C@@H]1C(=O)NCC(=O)N[C@@H](CCCN)C(=O)N[C@@H](CC(=O)O)C(=O)N[C@H](C)C(=O)N[C@@H](CC(=O)O)C(=O)NCC(=O)N[C@H](CO)C(=O)N[C@@H]([C@H](C)CC(=O)O)C(=O)N[C@@H](CC(=O)c2ccccc2N)C(=O)O[C@@H]1C [Compound 9] . Is its MIC Streptococcus pneumoniae Group 9960 below 1 µg/mL?
Met

Answer whether the compound CCCCCCCCC(=O)N[C@@H](Cc1c[nH]c2ccccc12)C(=O)N[C@@H](CC(N)=O)C(=O)N[C@@H](CC(=O)O)C(=O)N[C@@H]1C(=O)NCC(=O)N[C@@H](CCCN)C(=O)N[C@@H](CC(=O)O)C(=O)N[C@H](C)C(=O)N[C@@H](CC(=O)O)C(=O)NCC(=O)N[C@H](CO)C(=O)N[C@@H]([C@H](C)CC(=O)O)C(=O)N[C@@H](CC(=O)c2ccccc2N)C(=O)O[C@@H]1C [Compound 3] has MIC Streptococcus pneumoniae Group 9960 strictly less than 1 µg/mL
Not met

====

// values below are reported Size of Zone of Inhibition (mm) B. subtilis ATCC 6633, grown on minimal nutrient agar
System: Bacillus subtilis ATCC 6633
Experiment: agar-plate disc-diffusion test
Conditions: grown on minimal nutrient agar; 1 mg/ml; 7 mm disc; 24-48 hours at 25-37° C.
Give the figure together with its unit, number first.

Item C=CCCCCCCCCC(=O)N[C@@H](Cc1c[nH]c2ccccc12)C(=O)N[C@@H](CC(N)=O)C(=O)N[C@@H](CC(=O)O)C(=O)N[C@@H]1C(=O)NCC(=O)N[C@@H](CCCN)C(=O)N[C@@H](CC(=O)O)C(=O)N[C@H](C)C(=O)N[C@@H](CC(=O)O)C(=O)NCC(=O)N[C@H](CO)C(=O)N[C@@H]([C@H](C)CC(=O)O)C(=O)N[C@@H](CC(=O)c2ccccc2N)C(=O)O[C@@H]1C was tested on Bacillus subtilis ATCC 6633; the reported Size of Zone of Inhibition (mm) B. subtilis ATCC 6633, grown on minimal nutrient agar is 25 mm

Kindly note: Bacillus subtilis ATCC 6633, CCCCCCCCCCC(=O)NCCC[C@@H]1NC(=O)CNC(=O)[C@@H](NC(=O)[C@H](CC(=O)O)NC(=O)[C@H](CC(N)=O)NC(=O)[C@H](Cc2c[nH]c3ccccc23)NC(=O)CCCCCCCCCC)[C@@H](C)OC(=O)[C@H](CC(=O)c2ccccc2N)NC(=O)[C@H]([C@H](C)CC(=O)O)NC(=O)[C@@H](CO)NC(=O)CNC(=O)[C@H](CC(=O)O)NC(=O)[C@@H](C)NC(=O)[C@H](CC(=O)O)NC1=O , Size of Zone of Inhibition (mm) B. subtilis ATCC 6633, grown on minimal nutrient agar value reported: 20 mm

More entries:
Value sought: Size of Zone of Inhibition (mm) B. subtilis ATCC 6633, grown on minimal nutrient agar, system Bacillus subtilis ATCC 6633, item CCCCCCCCC(=O)N[C@@H](Cc1c[nH]c2ccccc12)C(=O)N[C@@H](CC(N)=O)C(=O)N[C@@H](CC(=O)O)C(=O)N[C@@H]1C(=O)NCC(=O)N[C@@H](CCCN)C(=O)N[C@@H](CC(=O)O)C(=O)N[C@H](C)C(=O)N[C@@H](CC(=O)O)C(=O)NCC(=O)N[C@H](CO)C(=O)N[C@@H]([C@H](C)CC(=O)O)C(=O)N[C@@H](CC(=O)c2ccccc2N)C(=O)O[C@@H]1C . Result: 27 mm

CCCCC=CCCCCCCCC(=O)N[C@@H](Cc1c[nH]c2ccccc12)C(=O)N[C@@H](CC(N)=O)C(=O)N[C@@H](CC(=O)O)C(=O)N[C@@H]1C(=O)NCC(=O)N[C@@H](CCCN)C(=O)N[C@@H](CC(=O)O)C(=O)N[C@H](C)C(=O)N[C@@H](CC(=O)O)C(=O)NCC(=O)N[C@H](CO)C(=O)N[C@@H]([C@H](C)CC(=O)O)C(=O)N[C@@H](CC(=O)c2ccccc2N)C(=O)O[C@@H]1C tested on Bacillus subtilis ATCC 6633 gave Size of Zone of Inhibition (mm) B. subtilis ATCC 6633, grown on minimal nutrient agar: 30 mm

Response field Size of Zone of Inhibition (mm) B. subtilis ATCC 6633, grown on minimal nutrient agar (Bacillus subtilis ATCC 6633) for item CCCCCCCC(=O)NCCC[C@@H]1NC(=O)CNC(=O)[C@@H](NC(=O)[C@H](CC(=O)O)NC(=O)[C@H](CC(N)=O)NC(=O)[C@H](Cc2c[nH]c3ccccc23)NC(=O)CCCCCCC)[C@@H](C)OC(=O)[C@H](CC(=O)c2ccccc2N)NC(=O)[C@H]([C@H](C)CC(=O)O)NC(=O)[C@@H](CO)NC(=O)CNC(=O)[C@H](CC(=O)O)NC(=O)[C@@H](C)NC(=O)[C@H](CC(=O)O)NC1=O : 17 mm
